target: CDK2 (UniProt P24941); test: Enzyme Assay
experimental-readout: log10(IC50) (log10 of the value in µM)

INSERT INTO measurements (compound, experimental_result) VALUES
  ('CCC(C)[C@@H]1NC(=O)c2c1c1c3ccccc3n3c1c1c2c2ccccc2n1[C@H]1C[C@](O)(C(=O)OC)[C@]3(C)O1 (some centres not stated)', 0.76),
  ('CC(C)(C)n1nc(-c2cccc3ccccc23)c2c(N)ncnc21', 1.26),
  ('COC(=O)[C@@]1(O)C[C@H]2O[C@]1(C)n1c3ccccc3c3c4c(c5c6ccccc6n2c5c31)C(=O)N[C@H]4C(C)C', 1.46),
  ('COC(=O)[C@@]1(O)C[C@H]2O[C@]1(C)n1c3ccccc3c3c4c(c5c6ccccc6n2c5c31)C(=O)N[C@H]4Cc1ccccc1', 0.00),
  ('COC(=O)[C@@]1(O)C[C@H]2O[C@]1(C)n1c3ccccc3c3c4c(c5c6ccccc6n2c5c31)C(=O)N[C@@H]4Cc1ccccc1', 1.00),
  ('COC(=O)[C@@]1(O)C[C@H]2O[C@]1(C)n1c3ccccc3c3c4c(c5c6ccccc6n2c5c31)C(=O)N[C@H]4CCc1ccccc1', 0.57),
  ('COC(=O)[C@@]1(O)C[C@H]2O[C@]1(C)n1c3ccccc3c3c4c(c5c6ccccc6n2c5c31)C(=O)N[C@H]4CC(C)C', 1.34);
